assay_target: TREK-2 (native riluzole-activated current IRIL in mouse SCG neurons) (Mus musculus, UniProt Q8BUW1)
Construct: TREK-1 and TRAAK are also expressed at lower level
Sequence (Q8BUW1 whole entry): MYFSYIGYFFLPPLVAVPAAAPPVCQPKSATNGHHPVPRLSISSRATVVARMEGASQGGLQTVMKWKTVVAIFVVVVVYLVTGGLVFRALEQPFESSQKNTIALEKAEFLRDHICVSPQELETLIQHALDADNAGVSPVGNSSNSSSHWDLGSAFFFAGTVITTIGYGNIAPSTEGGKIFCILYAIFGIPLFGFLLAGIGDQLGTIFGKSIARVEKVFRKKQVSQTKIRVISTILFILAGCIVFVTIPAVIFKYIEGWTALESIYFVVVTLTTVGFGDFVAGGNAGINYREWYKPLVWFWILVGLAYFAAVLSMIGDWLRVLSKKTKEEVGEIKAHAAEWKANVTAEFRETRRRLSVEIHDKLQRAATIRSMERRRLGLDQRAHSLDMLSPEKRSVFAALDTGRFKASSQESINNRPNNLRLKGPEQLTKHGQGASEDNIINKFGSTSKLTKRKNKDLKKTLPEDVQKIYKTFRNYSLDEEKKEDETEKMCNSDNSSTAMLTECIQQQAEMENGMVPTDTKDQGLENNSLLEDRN
assay_details: perforated-patch whole-cell voltage clamp, inhibition of riluzole-activated current
condition_info: riluzole 300 µM activator, TEA 15 mM, TTX 0.5 µM, CsCl 1 mM, -30 mV, room temperature, Hill coefficient 0.78
reported_metric: IC50 (nM)
Give bare numbers, in nM.

Q. Look at this compound and give its reported IC50. O=C1N(c2ccccc2)c2ccccc2C1(Cc1ccncc1)Cc1ccncc1
A. 310
